Conditions: 4 h, 10 μM
VALUE KIND: Prodrug (%) remaining, Rat Plasma
Enter your answer as a number in %; do not include the unit.

// COc1ccc([C@@]23CCC(OC(=O)c4cccc(C)c4)=C[C@@H]2N(C)CC3)cc1OC : Prodrug (%) remaining, Rat Plasma value = 0.0

// CCC(C)(CC)C(=O)OC1=C[C@@H]2N(C)CC[C@]2(c2ccc(OC)c(OC)c2)CC1 : Prodrug (%) remaining, Rat Plasma value = 92.8

// COc1ccc([C@@]23CCC(OC(=O)CCC(C)C)=C[C@@H]2N(C)CC3)cc1OC : Prodrug (%) remaining, Rat Plasma value = 0.0

// COCCCCC(=O)OC1=C[C@@H]2N(C)CC[C@]2(c2ccc(OC)c(OC)c2)CC1 : Prodrug (%) remaining, Rat Plasma value = 0.2

* * *

Assay: Plasma Stability Assay of Example A3, human plasma
Conditions: 0 min; 5 μM, 37° C.; % of prodrug compound remaining
So I've got a bunch of compounds here, and I need their Human Plasma Prodrug (%) values.
Enter your answer as a number in %; do not include the unit.

// COc1ccc([C@@]23CCC(OC(=O)c4cccc(C)c4C)=C[C@@H]2N(C)CC3)cc1OC [Compound 373] : Human Plasma Prodrug (%) value = 100

// COc1ccc([C@@]23CCC(OC(=O)C(C)(C)C)=C[C@@H]2N(C)CC3)cc1OC [Compound 309] : Human Plasma Prodrug (%) value = 100.0

// COc1ccc([C@@]23CCC(OC(=O)c4ccc(C(C)C)cc4)=C[C@@H]2N(C)CC3)cc1OC [Compound 371] : Human Plasma Prodrug (%) value = 100

// COc1ccc([C@@]23CCC(OC(=O)c4cccc(N(C)C)c4)=C[C@@H]2N(C)CC3)cc1OC [Compound 307] : Human Plasma Prodrug (%) value = 100.0

// C=C(C)C(=O)OC1=C[C@@H]2N(C)CC[C@]2(c2ccc(OC)c(OC)c2)CC1 [Compound 315] : Human Plasma Prodrug (%) value = 100.0

// COc1ccc([C@@]23CCC(OC(=O)c4ccc(C#N)cc4)=C[C@@H]2N(C)CC3)cc1OC [Compound 354] : Human Plasma Prodrug (%) value = 100

// COc1ccc([C@@]23CCC(OC(=O)c4c(C)cccc4C)=C[C@@H]2N(C)CC3)cc1OC [Compound 372] : Human Plasma Prodrug (%) value = 100

* * *

Experiment: Plasma Stability Assay of Example A3, human plasma
Conditions: 60 min; 5 μM, 37° C.; % of prodrug compound remaining
// map Human Plasma Prodrug (%) to label using group A: < 50%; group B: ≥ 50% and < 90%; group C: ≥ 90%

Incoming: Just checking, what class would you give COc1ccc([C@@]23CCC(OC(=O)C(c4ccccc4)c4ccccc4)=C[C@@H]2N(C)CC3)cc1OC here?
Outgoing: group B

Incoming: Just checking, what class would you give COc1ccc([C@@]23CCC(OC(=O)c4ccc(C(C)C)cc4)=C[C@@H]2N(C)CC3)cc1OC here?
Outgoing: group B

Incoming: Just checking, what class would you give COc1ccc([C@@]23CCC(OC(=O)c4cccc(C(C)(C)C)c4)=C[C@@H]2N(C)CC3)cc1OC here?
Outgoing: group C

Incoming: Just checking, what class would you give COc1ccc([C@@]23CCC(OC(=O)c4ccc(F)cc4)=C[C@@H]2N(C)CC3)cc1OC here?
Outgoing: group B

Incoming: Just checking, what class would you give C/C=C(\C)C(=O)OC1=C[C@@H]2N(C)CC[C@]2(c2ccc(OC)c(OC)c2)CC1 here?
Outgoing: group A

Incoming: Just checking, what class would you give COc1ccc([C@@]23CCC(OC(=O)c4cccc(C)c4C)=C[C@@H]2N(C)CC3)cc1OC here?
Outgoing: group B

Incoming: Just checking, what class would you give C=C(C)C(=O)OC1=C[C@@H]2N(C)CC[C@]2(c2ccc(OC)c(OC)c2)CC1 here?
Outgoing: group A

Incoming: Just checking, what class would you give COc1ccc([C@@]23CCC(OC(=O)c4c(C)cccc4C)=C[C@@H]2N(C)CC3)cc1OC here?
Outgoing: group C

Incoming: Just checking, what class would you give COc1ccc([C@@]23CCC(OC(=O)c4cccc(C)c4)=C[C@@H]2N(C)CC3)cc1OC here?
Outgoing: group B
